- Tested on: P. chrysogenum
- assay-summary: agar dilution test, P. chrysogenum
- Format: cell-based
- test-parameters: Penicillium chrysogenum; P. chrysogenum; agar dilution; complete growth inhibition; read-out: Minimum Inhibitory Concentration, Pen
# Lookup of reported MIC keyed by entry
// note: answer is a bare numeric in µg/mL

Some solved entries appear below for comparison.
| compound | attribute-measured | value-units | measurement |
| --- | --- | --- | --- |
| COc1ccc(NC(=O)N2CN3CN(C/C=C\Cl)CN(C3)C2)cc1 | MIC | µg/mL | 250 |
| CCCCNC(=O)N1CN2CN(C/C=C\Cl)CN(C2)C1 | MIC | µg/mL | 250 |
| O=C(NC1CCCCC1)N1CN2CN(C/C=C\Cl)CN(C2)C1 | MIC | µg/mL | 250 |
| O=C(Nc1ccccc1)N1CN2CN(C/C=C\Cl)CN(C2)C1 | MIC | µg/mL | 250 |
| Cc1ccc(S(=O)(=O)NC(=O)N2CN3CN(C/C=C\Cl)CN(C3)C2)cc1 | MIC | µg/mL | 500 |
| CCCCNC(=S)N1CN2CN(C/C=C\Cl)CN(C2)C1 | MIC | µg/mL | 500 |

In: Kindly indicate its recorded MIC. Item: "S=C(Nc1ccccc1)N1CN2CN(C/C=C\Cl)CN(C2)C1"
Out: 500

In: Kindly indicate its recorded MIC. Item: "Cc1ccc(NC(=O)N2CN3CN(C/C=C\Cl)CN(C3)C2)cc1"
Out: 100

---

MIC, S. aureus, per-entry values.

Some solved entries appear below for comparison.
| compound | measurement |
| --- | --- |
| CCCCNC(=S)N1CN2CN(C/C=C\Cl)CN(C2)C1 [Example 3 o)] | 100 µg/mL |
| Cc1ccc(S(=O)(=O)NC(=O)N2CN3CN(C/C=C\Cl)CN(C3)C2)cc1 [Example 3 i)] | 250 µg/mL |
| O=C(NC1CCCCC1)N1CN2CN(C/C=C\Cl)CN(C2)C1 [Example 3 h)] | 75 µg/mL |

In: Return reported MIC for target or system S. aureus, item CCCCNC(=O)N1CN2CN(C/C=C\Cl)CN(C2)C1 [Example 3 n)] .
Out: 50 µg/mL

In: Return reported MIC for target or system S. aureus, item Cl/C=C\C[N+]12CN3CN(CN(C3)C1)C2.[Cl-] [Cis, reference compound] .
Out: 50 µg/mL

---

- System: S. aureus
attribute-measured: MIC (µg/mL)
// note: answer is a bare numeric in µg/mL

In: Kindly indicate its recorded MIC. Item: "S=C(Nc1ccc(Br)cc1)N1CN2CN(C/C=C\Cl)CN(C2)C1"
Out: 250

In: Kindly indicate its recorded MIC. Item: "COc1ccc(NC(=O)N2CN3CN(C/C=C\Cl)CN(C3)C2)cc1"
Out: 50

In: Kindly indicate its recorded MIC. Item: "Cc1ccc(NC(=S)N2CN3CN(C/C=C\Cl)CN(C3)C2)cc1C"
Out: 50

In: Kindly indicate its recorded MIC. Item: "Cc1ccc(NC(=O)N2CN3CN(C/C=C\Cl)CN(C3)C2)cc1"
Out: 50

---

- Test system: P. chrysogenum
- assay-summary: agar dilution test, P. chrysogenum
- Assay type: cell-based
- test-parameters: Penicillium chrysogenum; P. chrysogenum; agar dilution; complete growth inhibition; read-out: Minimum Inhibitory Concentration, Pen
# Lookup of reported MIC keyed by entry
// note: answer is a bare numeric in µg/mL

Some solved entries appear below for comparison.
| compound | value-units | MIC |
| --- | --- | --- |
| Cc1ccc(NC(=S)N2CN3CN(C/C=C\Cl)CN(C3)C2)cc1C | µg/mL | 100 |
| S=C(Nc1ccc(Br)cc1)N1CN2CN(C/C=C\Cl)CN(C2)C1 | µg/mL | 250 |

In: Return reported MIC for target or system P. chrysogenum, item "S=C(Nc1ccc(Cl)c(Cl)c1)N1CN2CN(C/C=C\Cl)CN(C2)C1" .
Out: 100

In: Return reported MIC for target or system P. chrysogenum, item "Cc1ccc(C)c(NC(=O)N2CN3CN(C/C=C\Cl)CN(C3)C2)c1" .
Out: 250

In: Return reported MIC for target or system P. chrysogenum, item "O=C(Nc1ccc(Br)cc1)N1CN2CN(C/C=C\Cl)CN(C2)C1" .
Out: 250

In: Return reported MIC for target or system P. chrysogenum, item "O=C(Nc1ccc(Cl)c(Cl)c1)N1CN2CN(C/C=C\Cl)CN(C2)C1" .
Out: 250

In: Return reported MIC for target or system P. chrysogenum, item "S=C(Nc1ccc(Cl)cc1)N1CN2CN(C/C=C\Cl)CN(C2)C1" .
Out: 100

In: Return reported MIC for target or system P. chrysogenum, item "O=C(Nc1cc(Cl)ccc1Cl)N1CN2CN(C/C=C\Cl)CN(C2)C1" .
Out: 250

In: Return reported MIC for target or system P. chrysogenum, item "O=C(Nc1ccc(Cl)cc1)N1CN2CN(C/C=C\Cl)CN(C2)C1" .
Out: 250
